System: H1975 cells
Test Details: MTT cytotoxicity assay on H1975 NSCLC cells
Type: cell-based
Cond: Homo sapiens, NCI-H1975, H1975, EGFR L858R/T790M, 72 h treatment
Recorded Metric: IC50 (µM)
API: value field is a number in µM; no unit string.

## Input Requested field: IC50. Item: O=C(Nc1cccc(-c2noc(C3CCCC3)n2)c1)c1cc2ccccc2[nH]1 [F321-0719]
## Output 3.46
